# Tested on: Ebolavirus
# method_description: Antiviral activity against pseudotyped Ebola virus infected in HeLa cells assessed as reduction in viral infection incubated for 48 hrs by firefly luciferase assay
# Type: functional, organism-based
# condition_info: Orthoebolavirus
outcome_measure: IC50 (µM)
The reply should contain only the number, in µM.

IN: Provide measured IC50 value, entry: FC(C1=Nc2ccccc2N=C(c2ccccc2)C1)C(F)(F)F (stereo unspecified)
OUT: 10

====

# Tested on: Chikungunya virus
# method_description: Antiviral activity against CHIKV infected in HEK293T cells
# Format: functional, organism-based
# condition_info: HEK-293T
outcome_measure: IC50
Provide the measurement as a number trailed by its unit.

IN: Provide measured IC50 value, entry: COc1cc(OC)c2c(c1)O[C@@]1(c3ccc(Br)cc3)[C@H](c3ccccc3)C[C@@H](O)[C@@]21O
OUT: 0.0224 µM

====

# method_description: Inhibition of MERS-CoV Main protease
# Set-up: species or system Middle East respiratory syndrome-related coronavirus
outcome_measure: pIC50
The quantity pIC50 is defined as the negative base-10 logarithm of the molar concentration.

IN: Provide measured pIC50 value, entry: Cc1cc2nc3s/c(=C/c4ccc(-c5cccc(C(=O)O)c5)o4)c(=O)n3c2cc1C
OUT: 7.12

====

# test_target: Spike glycoprotein/Angiotensin-converting enzyme 2 (Severe acute respiratory syndrome coronavirus 2, UniProt P0DTC2+Q9BYF1)
# Sequence (Q9BYF1 18-805 limits assumed, other chains not shown): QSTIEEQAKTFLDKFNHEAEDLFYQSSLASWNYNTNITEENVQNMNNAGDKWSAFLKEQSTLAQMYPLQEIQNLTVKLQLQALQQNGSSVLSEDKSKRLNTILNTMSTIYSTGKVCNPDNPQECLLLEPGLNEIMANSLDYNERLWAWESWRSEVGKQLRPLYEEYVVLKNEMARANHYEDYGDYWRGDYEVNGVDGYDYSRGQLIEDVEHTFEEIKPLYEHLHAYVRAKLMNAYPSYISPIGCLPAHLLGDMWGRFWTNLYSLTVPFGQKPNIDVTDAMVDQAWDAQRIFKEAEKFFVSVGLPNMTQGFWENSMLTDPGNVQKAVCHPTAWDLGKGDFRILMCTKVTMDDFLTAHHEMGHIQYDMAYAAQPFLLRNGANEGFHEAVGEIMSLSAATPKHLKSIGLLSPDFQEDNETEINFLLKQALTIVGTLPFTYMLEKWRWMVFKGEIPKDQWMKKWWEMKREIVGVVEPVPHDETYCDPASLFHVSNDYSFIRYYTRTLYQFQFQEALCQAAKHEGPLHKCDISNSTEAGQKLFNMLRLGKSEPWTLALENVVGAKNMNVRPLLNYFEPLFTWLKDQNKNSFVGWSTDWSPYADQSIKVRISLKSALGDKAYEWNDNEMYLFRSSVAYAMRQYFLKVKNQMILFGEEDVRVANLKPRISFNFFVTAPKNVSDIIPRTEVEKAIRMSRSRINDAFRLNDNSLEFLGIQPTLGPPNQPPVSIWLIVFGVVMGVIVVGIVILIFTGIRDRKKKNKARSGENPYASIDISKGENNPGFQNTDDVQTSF
# method_description: Inhibition of SARS-CoV-2 spike protein RBD- human ACE2 interaction incubated for 1 hr by colorimetric ELISA assay
outcome_measure: pIC50
The quantity pIC50 is defined as the negative base-10 logarithm of the molar concentration.

IN: Provide measured pIC50 value, entry: CN1C(=O)c2ccccc2[S+]([O-])c2cc([N+](=O)[O-])ccc2S1(=O)=O (stereo unspecified)
OUT: 6.17
